Tested On: p56lck GST-SH2 (lck SH2 domain) (Homo sapiens, UniProt P06239)
Construct: GST (N)
Sequence (P06239 127-224 limits assumed): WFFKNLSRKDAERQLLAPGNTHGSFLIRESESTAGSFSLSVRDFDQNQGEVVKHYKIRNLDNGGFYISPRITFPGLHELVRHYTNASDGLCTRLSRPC
Run Description: Receptor-ligand equilibrium binding constants by surface plasmon resonance (biosensor), lck SH2 domain
Particulars: Table 1, compounds of formula (II)
Readout Type: Kd (nM)
Please reply with the bare figure in nM and do not write the unit itself.

Completed entries (count: 4):
[
  {
    "Compound": "COc1ccc(Cn2ccc(C)c(NC(=O)[C@H](Cc3ccc(CC(=O)O)cc3)NC(=O)COc3cccc4c(N(C)C)cccc34)c2=O)cc1",
    "Kd, nM": 1200
  },
  {
    "Compound": "COc1ccc(Cn2ccc(C)c(NC(=O)[C@H](Cc3ccc(C(C)(C)C(=O)O)cc3)NC(=O)Cc3c(C)cc(C)cc3C)c2=O)cc1",
    "Kd, nM": 370
  },
  {
    "Compound": "COc1ccc(Cn2ccc(C)c(NC(=O)[C@H](Cc3ccc(C(C)(C)C(=O)O)cc3)NC(=O)C(C)(C)c3ccc(C(C)C)cc3)c2=O)cc1",
    "Kd, nM": 610
  },
  {
    "Compound": "COc1ccc(Cn2ccc(C)c(NC(=O)C(Cc3ccc(C(C)(C)C(=O)O)cc3)NC(=O)Cc3cccc4ccccc34)c2=O)cc1 (stereo not drawn) [Compound 216]",
    "Kd, nM": 190000
  }
]

Note to self: Kd of CCN(CC)c1ccc(CC(=O)N[C@@H](Cc2ccc(NC(=O)C(=O)O)cc2)C(=O)Nc2c(C)ccn(Cc3ccc(OC)cc3)c2=O)cc1 with p56lck GST-SH2 (lck SH2 domain) (Homo sapiens, UniProt P06239) was 1900

----------
Tested On: p56lck GST-SH2 (lck SH2 domain) (Homo sapiens)
Construct: GST (N)
Run Description: Receptor-ligand equilibrium binding constants by surface plasmon resonance (biosensor), lck SH2 domain
Particulars: Table 1, compounds of formula (II)
# maps each entry to its pKd
Scale for pKd: -log10 of concentration given in mol/L; no unit attached.

[
  {
    "Molecule": "COc1ccc(Cn2ccc(C)c(NC(=O)[C@H](Cc3ccc(CC(=O)O)cc3)NC(=O)COc3cccc4ccccc34)c2=O)cc1 [Compound 72]",
    "pKd": 5.60
  },
  {
    "Molecule": "COc1ccc(Cn2ccc(C)c(NC(=O)[C@H](Cc3ccc(C(C)(C)C(=O)O)cc3)NC(=O)[C@H](C)c3cccc4ccccc34)c2=O)cc1 [Compound 44]",
    "pKd": 5.82
  }
]

Param item: COc1ccc(Cn2ccc(C)c(NC(=O)[C@H](Cc3ccc(C(C)(C)C(=O)O)cc3)NC(=O)Cc3ccc(C(C)C)cc3)c2=O)cc1 [Compound 94] ; param system: p56lck GST-SH2 (lck SH2 domain) (Homo sapiens); output pKd: 6.68

Short answer on p56lck GST-SH2 (lck SH2 domain) (Homo sapiens) for COc1ccc(Cn2ccc(C)c(NC(=O)[C@H](Cc3ccc(CS(=O)(=O)O)cc3)NC(=O)Cc3cccc4ccccc34)c2=O)cc1 [Compound 42] , pKd: 5.82

Summary: Cc1ccn(CC2CCCCC2)c(=O)c1NC(=O)[C@H](Cc1ccc(CC(=O)O)cc1)NC(=O)C(C)(C)C [Compound 67] , p56lck GST-SH2 (lck SH2 domain) (Homo sapiens), pKd = 4.19

Per the reported p56lck GST-SH2 (lck SH2 domain) (Homo sapiens) data, CCC(CC)(C(=O)N[C@@H](Cc1ccc(C(C)(C)C(=O)O)cc1)C(=O)Nc1c(C)ccn(Cc2ccc(OC)cc2)c1=O)c1ccc2ccccc2c1 [Compound 123] has pKd of 6.08

The molecule CCCCCn1ccc(C)c(NC(=O)[C@H](Cc2ccc(CC(=O)O)cc2)NC(=O)C(C)(C)C)c1=O [Compound 69] on p56lck GST-SH2 (lck SH2 domain) (Homo sapiens): pKd was 4.05

The recorded pKd with p56lck GST-SH2 (lck SH2 domain) (Homo sapiens) for COc1ccc(Cn2ccc(C)c(NC(=O)C(Cc3ccc(C(C)(C)C(=O)O)cc3)NC(=O)C(C)(C)c3ccccc3)c2=O)cc1 (stereo not shown) [Compound 180] was 5.60

// assay p56lck GST-SH2 (lck SH2 domain) (Homo sapiens), entry COc1ccc(Cn2ccc(C)c(NC(=O)[C@H](Cc3ccc(NC(=O)C(=O)O)cc3)NC(=O)Nc3cccc4ccccc34)c2=O)cc1 [Compound 9] , pKd value = 4.19

Let me check: COc1ccc(Cn2ccc(C)c(NC(=O)[C@H](Cc3ccc(C(C)(C)C(=O)O)cc3)NC(=O)Cc3cccc4ccccc34)c2=O)cc1 [Compound 2] , system p56lck GST-SH2 (lck SH2 domain) (Homo sapiens), measured pKd is 6.24

p56lck GST-SH2 (lck SH2 domain) (Homo sapiens) data for CCOc1ccc(Cn2ccc(C)c(NC(=O)C(Cc3ccc(C(C)(C)C(=O)O)cc3)NC(=O)Cc3cccc4ccccc34)c2=O)cc1 (stereo not shown) [Compound 140] ; its pKd: 6.20

Item COc1ccc(Cn2ccc(C)c(NC(=O)[C@H](Cc3ccc(C(C)(C)C(=O)O)cc3)NC(=O)C(C)c3ccc(CC(C)C)cc3)c2=O)cc1 (stereo partly shown) [Compound 112] was tested on p56lck GST-SH2 (lck SH2 domain) (Homo sapiens); the reported pKd is 5.82

The molecule COc1ccc(Cn2ccc(C)c(NC(=O)[C@H](Cc3ccc(C(C)(C)C(=O)O)cc3)NC(=O)Cc3ccc(C)cc3)c2=O)cc1 [Compound 114] , when measured on p56lck GST-SH2 (lck SH2 domain) (Homo sapiens), yielded pKd of 6.72

----------
Test system: Inter-leukin 2 (IL-2) production by activated Human Primary T Lymphocytes
Run Description: Primary T cell assay: inhibition of IL-2 production by activated human primary CD4 positive T lymphocytes
Assay type: cell-based
Particulars: Homo sapiens, CD4 positive, Table 5; mean IC50 value; CD4 positive T cells activated with anti-CD3/anti-CD28, IL-2 by ELISA; read-out: IC50 (blocking IL-2 production)
Lab note: cut-off is 60 µM. Strictly less in IC50 is fulfilled. Exactly 60 µM or more is not fulfilled.

These solved cases illustrate the format of a correct answer.
[
  {
    "Compound": "COc1ccc(Cn2ccc(C)c(NC(=O)[C@H](Cc3ccc(C(C)(C)C(=O)O)cc3)NC(=O)Cc3ccc4ccccc4c3)c2=O)cc1",
    "Tested On": "Inter-leukin 2 (IL-2) production by activated Human Primary T Lymphocytes",
    "Category Label": "not fulfilled"
  },
  {
    "Compound": "Cc1ccn(Cc2ccc(C(F)(F)F)cn2)c(=O)c1NC(=O)[C@H](Cc1ccc(C(C)(C)C(=O)O)cc1)NC(=O)Cc1ccc2ccccc2c1",
    "Tested On": "Inter-leukin 2 (IL-2) production by activated Human Primary T Lymphocytes",
    "Category Label": "not fulfilled"
  },
  {
    "Compound": "COc1ccc(Cn2ccc(C)c(NC(=O)C(Cc3ccc(C(C)(C)C(=O)O)cc3)NC(=O)C(C)(C)c3ccc(C(C)(C)C)cc3)c2=O)cc1 (stereo not drawn)",
    "Tested On": "Inter-leukin 2 (IL-2) production by activated Human Primary T Lymphocytes",
    "Category Label": "fulfilled"
  },
  {
    "Compound": "COc1ccc(C(C)n2ccc(C)c(NC(=O)C(Cc3ccc(C(C)(C)C(=O)O)cc3)NC(=O)Cc3cccc4ccccc34)c2=O)cc1 (stereo not drawn)",
    "Tested On": "Inter-leukin 2 (IL-2) production by activated Human Primary T Lymphocytes",
    "Category Label": "not fulfilled"
  }
]

Decide: IC50 of COc1ccc(Cn2ccc(C)c(NC(=O)C(Cc3ccc(C(C)(C)C(=O)O)cc3)NC(=O)C(C)(C)c3ccc(-c4ccccc4)cc3)c2=O)cc1 (stereo not drawn) strictly below 60 µM? fulfilled

Say whether its IC50 is strictly beneath 60 µM. Entry: CCC(CC)(C(=O)O)c1ccc(C[C@H](NC(=O)Cc2ccc3ccccc3c2)C(=O)Nc2c(C)ccn(Cc3ccc(OC)cc3)c2=O)cc1 not fulfilled

----------
Tested On: p56lck GST-SH2 (lck SH2 domain) (Homo sapiens, UniProt P06239)
Construct: GST (N)
Run Description: Receptor-ligand equilibrium binding constants by surface plasmon resonance (biosensor), lck SH2 domain
Particulars: Table 1, compounds of formula (II)
Catalogue of pKd values
Remember, pKd is on a log scale: it is -log10 of the molar concentration.

Lab entry: p56lck GST-SH2 (lck SH2 domain) (Homo sapiens, UniProt P06239) assay, compound COc1ccc(Cn2ccc(C)c(NC(=O)[C@H](Cc3ccc(NC(=O)C(=O)O)cc3)NC(=O)Cc3ccccc3Br)c2=O)cc1 [Compound 38] , pKd = 5.49

Record COc1ccc(Cn2ccc(CCO)c(NC(=O)C(Cc3ccc(C(C)(C)C(=O)O)cc3)NC(=O)C(C)(C)c3ccc4ccccc4c3)c2=O)cc1 (stereo not drawn) [Compound 223] ; system p56lck GST-SH2 (lck SH2 domain) (Homo sapiens, UniProt P06239); pKd = 5.62
